Test system: A549 cells
ASSAY: cells
CONDITION_DESCRIPTION: Homo sapiens, A549, read-out: % Inhibition against A549 cells
Recorded inhibition at 0.05 µg/mL values for a group of compounds are listed next.

COMPOUND	inhibition at 0.05 µg/mL / %
COc1cc2c(OC3O[C@H](C)[C@@H](O)[C@H](OC(=O)c4ccc(N(C)C)cc4)[C@H]3O)c3c(c(-c4ccc5c(c4)OCO5)c2cc1OC)C(=O)OC3 (stereo partly drawn) [Compound 31e]	66.8
COc1cc2c(OC3OC[C@@H](O)[C@H](OCc4ccccc4)[C@H]3O)c3c(c(-c4ccc5c(c4)OCO5)c2cc1OC)C(=O)OC3 (stereo partly drawn) [Compound 31l, 3″-O-benzyl-7-O-β-D-xylosyldiphyllin]	82.1
COc1cc2c(OC3O[C@H](C)[C@@H](O)[C@H](OC(=O)CC#N)[C@H]3O)c3c(c(-c4ccc5c(c4)OCO5)c2cc1OC)C(=O)OC3 (stereo partly drawn) [Compound 31j, 3″-O-cyanoacetyl-7-O-β-D-patentiflorin A]	93.8

* * *

Entries annotated with measured CC50
ASSAY: in vitro
CONDITION_DESCRIPTION: human, CC50 (nM)
READOUT_KIND: CC50 (nM)

COMPOUND	SIGN	RESULT_VALUE
COc1cc2c(OC3O[C@H](C)[C@H](O)[C@H](O)[C@H]3O)c3c(c(-c4ccc5c(c4)OCO5)c2cc1OC)C(=O)OC3 (stereo partly drawn) [Compound 26e, 7-O-β-D-fucopyranosyldiphyllin]	>	9500
COc1cc2c(OC3O[C@H](C)[C@@H](OC(C)=O)[C@H](O)[C@H]3OC(C)=O)c3c(c(-c4ccc5c(c4)OCO5)c2cc1OC)C(=O)OC3 (stereo partly drawn) [Compound 27be, 2″,4″-Diacetyl-7-O-β-D-patentiflorin A]	=	1670
COc1cc2c(-c3ccc4c(c3)OCO4)c3c(c(C(C)O)c2cc1OC)COC3=O (stereo not drawn) [Compound 20]	=	389
COc1cc2c(OC3O[C@@H](C)[C@@H](O)[C@@H](O)[C@@H]3O)c3c(c(-c4ccc5c(c4)OCO5)c2cc1OC)C(=O)OC3 (stereo partly drawn) [Compound 26d, 7-O-β-L-fucopyranosyldiphyllin]	>	9500
COc1cc2c(OC3O[C@H](C)[C@@H](OC(C)=O)[C@H](OC(C)=O)[C@H]3OC(C)=O)c3c(c(-c4ccc5c(c4)OCO5)c2cc1OC)C(=O)OC3 (stereo partly drawn) [Compound 25b, Peracetylated Patentiflorin A]	=	259
COc1cc2c(OC3OC[C@@H](O)[C@H](O)[C@H]3OC(C)=O)c3c(c(-c4ccc5c(c4)OCO5)c2cc1OC)C(=O)OC3 (stereo partly drawn) [Compound 27ac]	=	2940
COc1cc2c(OC3O[C@H](C)[C@@H](OC(C)=O)[C@H](OC(C)=O)[C@H]3O)c3c(c(-c4ccc5c(c4)OCO5)c2cc1OC)C(=O)OC3 (stereo partly drawn) [Compound 27bd, 3″, 4″-Diacetyl-7-O-β-D-patentiflorin A]	=	421
COc1cc2c(OC3O[C@H](C)[C@@H](O)[C@H](OC(=O)C(Cl)(Cl)Cl)[C@H]3O)c3c(c(-c4ccc5c(c4)OCO5)c2cc1OC)C(=O)OC3 (stereo partly drawn) [Compound 31k]	=	508
COc1cc2c(Oc3ncccn3)c3c(c(-c4ccc5c(c4)OCO5)c2cc1OC)C(=O)OC3 [Compound 17d]	=	61100
COc1cc2c(OCC(C)(C)O)c3c(c(-c4ccc5c(c4)OCO5)c2cc1OC)C(=O)OC3 [Compound 15b]	=	1330
COc1cc2c(OCC(=O)O)c3c(c(-c4ccc5c(c4)OCO5)c2cc1OC)C(=O)OC3 [Compound 13]	>	114000
COc1cc2c(C(C)=O)c3c(c(-c4ccc5c(c4)OCO5)c2cc1OC)C(=O)OC3 [Compound 19n]	=	1060

These measurements were taken from patent US11638713B2.
